Values were extracted from ChEMBL document CHEMBL4665875.

assay: Oral bioavailability in Sprague-Dawley rat at 10 mg/kg, po measured after 24 hrs by LC-MS/MS analysis; assay type: ADME, organism-based; conditions: in vivo
observed.property: bioavailability (%)

test.smiles: COC(=O)N[C@H](C(=O)N1CCC[C@H]1c1ncc(-c2ccc(C#CC#Cc3cnc([C@@H]4CCCN4C(=O)[C@H](NC(=O)OC)c4ccccc4)[nH]3)c(-c3cccc(F)c3F)c2)[nH]1)C(C)C.Cl.Cl
assay.result: 2.4

test.smiles: COC(=O)N[C@H](C(=O)N1CCC[C@H]1c1ncc(-c2ccc(C#CC#Cc3cnc([C@@H]4CCCN4C(=O)[C@H](NC(=O)OC)c4ccccc4)[nH]3)c(-c3ccccc3)c2)[nH]1)C(C)C.Cl.Cl
assay.result: 31

test.smiles: COC(=O)N[C@H](C(=O)N1CCC[C@H]1c1ncc(-c2ccc(C#CC#Cc3cnc([C@@H]4CCCN4C(=O)[C@H](NC(=O)OC)c4ccccc4)[nH]3)c(-c3cccc(F)c3F)c2)[nH]1)C(C)C
assay.result: 4.3

----------
test: MRT (0 to infinity) in Sprague-Dawley rat at 2 mg/kg, iv measured after 24 hrs by LC-MS/MS analysis; type: ADME, organism-based; settings: in vivo
observed.property: MRT inf

test.smiles: COC(=O)N[C@H](C(=O)N1CCC[C@H]1c1ncc(-c2ccc(C#CC#Cc3cnc([C@@H]4CCCN4C(=O)[C@H](NC(=O)OC)c4ccccc4)[nH]3)c(-c3cccc(F)c3F)c2)[nH]1)C(C)C.Cl.Cl
observed.property: MRT inf
assay.result: 3.3 h
//
test.smiles: COC(=O)N[C@H](C(=O)N1CCC[C@H]1c1ncc(-c2ccc(C#CC#Cc3cnc([C@@H]4CCCN4C(=O)[C@H](NC(=O)OC)c4ccccc4)[nH]3)c(-c3ccccc3)c2)[nH]1)C(C)C.Cl.Cl
observed.property: MRT inf
assay.result: 1.3 h
//
test.smiles: COC(=O)N[C@H](C(=O)N1CCC[C@H]1c1ncc(-c2ccc(C#CC#Cc3cnc([C@@H]4CCCN4C(=O)[C@H](NC(=O)OC)c4ccccc4)[nH]3)c(-c3cccc(F)c3F)c2)[nH]1)C(C)C
observed.property: MRT inf
assay.result: 4.7 h

----------
assay: AUClast in Sprague-Dawley rat at 10 mg/kg, po measured after 24 hrs by LC-MS/MS analysis; format: ADME, organism-based; set-up: route oral, dose 10 mg/kg, time 24 hrs; conditions: in vivo
observed.property: AUC(0-t) at 24 h (ng·h/mL)

test.smiles: COC(=O)N[C@H](C(=O)N1CCC[C@H]1c1ncc(-c2ccc(C#CC#Cc3cnc([C@@H]4CCCN4C(=O)[C@H](NC(=O)OC)c4ccccc4)[nH]3)c(-c3ccccc3)c2)[nH]1)C(C)C.Cl.Cl
observed.property: AUC(0-t) at 24 h
assay.result: 12600
--
test.smiles: COC(=O)N[C@H](C(=O)N1CCC[C@H]1c1ncc(-c2ccc(C#CC#Cc3cnc([C@@H]4CCCN4C(=O)[C@H](NC(=O)OC)c4ccccc4)[nH]3)c(-c3cccc(F)c3F)c2)[nH]1)C(C)C.Cl.Cl
observed.property: AUC(0-t) at 24 h
assay.result: 271
--
test.smiles: COC(=O)N[C@H](C(=O)N1CCC[C@H]1c1ncc(-c2ccc(C#CC#Cc3cnc([C@@H]4CCCN4C(=O)[C@H](NC(=O)OC)c4ccccc4)[nH]3)c(-c3cccc(F)c3F)c2)[nH]1)C(C)C
observed.property: AUC(0-t) at 24 h
assay.result: 58.7

----------
assay: MRT (0 to infinity) in Sprague-Dawley rat at 10 mg/kg, po measured after 24 hrs by LC-MS/MS analysis; type: ADME, organism-based; details: in vivo
observed.property: MRT inf

test.smiles: COC(=O)N[C@H](C(=O)N1CCC[C@H]1c1ncc(-c2ccc(C#CC#Cc3cnc([C@@H]4CCCN4C(=O)[C@H](NC(=O)OC)c4ccccc4)[nH]3)c(-c3cccc(F)c3F)c2)[nH]1)C(C)C
assay.result: 1.5 h

test.smiles: COC(=O)N[C@H](C(=O)N1CCC[C@H]1c1ncc(-c2ccc(C#CC#Cc3cnc([C@@H]4CCCN4C(=O)[C@H](NC(=O)OC)c4ccccc4)[nH]3)c(-c3cccc(F)c3F)c2)[nH]1)C(C)C.Cl.Cl
assay.result: 0.4 h

test.smiles: COC(=O)N[C@H](C(=O)N1CCC[C@H]1c1ncc(-c2ccc(C#CC#Cc3cnc([C@@H]4CCCN4C(=O)[C@H](NC(=O)OC)c4ccccc4)[nH]3)c(-c3ccccc3)c2)[nH]1)C(C)C.Cl.Cl
assay.result: 3.1 h

----------
test: Cmax in Sprague-Dawley rat at 2 mg/kg, iv measured after 24 hrs by LC-MS/MS analysis; assay type: ADME, organism-based; design: route intravenous, dose 2 mg/kg, time 24 hrs; settings: in vivo
observed.property: Cmax (ng/mL)

test.smiles: COC(=O)N[C@H](C(=O)N1CCC[C@H]1c1ncc(-c2ccc(C#CC#Cc3cnc([C@@H]4CCCN4C(=O)[C@H](NC(=O)OC)c4ccccc4)[nH]3)c(-c3ccccc3)c2)[nH]1)C(C)C.Cl.Cl
assay.result: 7760

test.smiles: COC(=O)N[C@H](C(=O)N1CCC[C@H]1c1ncc(-c2ccc(C#CC#Cc3cnc([C@@H]4CCCN4C(=O)[C@H](NC(=O)OC)c4ccccc4)[nH]3)c(-c3cccc(F)c3F)c2)[nH]1)C(C)C
assay.result: 114

test.smiles: COC(=O)N[C@H](C(=O)N1CCC[C@H]1c1ncc(-c2ccc(C#CC#Cc3cnc([C@@H]4CCCN4C(=O)[C@H](NC(=O)OC)c4ccccc4)[nH]3)c(-c3cccc(F)c3F)c2)[nH]1)C(C)C.Cl.Cl
assay.result: 1160

----------
assay: Tmax in Sprague-Dawley rat at 10 mg/kg, po measured after 24 hrs by LC-MS/MS analysis; type: ADME, organism-based; conditions: Sprague-Dawley, in vivo, read-out: Tmax
observed.property: Tmax (h)

test.smiles: COC(=O)N[C@H](C(=O)N1CCC[C@H]1c1ncc(-c2ccc(C#CC#Cc3cnc([C@@H]4CCCN4C(=O)[C@H](NC(=O)OC)c4ccccc4)[nH]3)c(-c3cccc(F)c3F)c2)[nH]1)C(C)C
assay.result: 1
--
test.smiles: COC(=O)N[C@H](C(=O)N1CCC[C@H]1c1ncc(-c2ccc(C#CC#Cc3cnc([C@@H]4CCCN4C(=O)[C@H](NC(=O)OC)c4ccccc4)[nH]3)c(-c3ccccc3)c2)[nH]1)C(C)C.Cl.Cl
assay.result: 2

----------
experiment: AUC (0 to infinity) in Sprague-Dawley rat at 2 mg/kg, iv measured after 24 hrs by LC-MS/MS analysis; format: ADME, organism-based; parameters: route intravenous, dose 2 mg/kg, time 24 hrs; settings: in vivo

test.smiles: COC(=O)N[C@H](C(=O)N1CCC[C@H]1c1ncc(-c2ccc(C#CC#Cc3cnc([C@@H]4CCCN4C(=O)[C@H](NC(=O)OC)c4ccccc4)[nH]3)c(-c3cccc(F)c3F)c2)[nH]1)C(C)C.Cl.Cl
result.units: ng·h/mL
AUC(0-inf): 2730
--
test.smiles: COC(=O)N[C@H](C(=O)N1CCC[C@H]1c1ncc(-c2ccc(C#CC#Cc3cnc([C@@H]4CCCN4C(=O)[C@H](NC(=O)OC)c4ccccc4)[nH]3)c(-c3ccccc3)c2)[nH]1)C(C)C.Cl.Cl
result.units: ng·h/mL
AUC(0-inf): 8330
--
test.smiles: COC(=O)N[C@H](C(=O)N1CCC[C@H]1c1ncc(-c2ccc(C#CC#Cc3cnc([C@@H]4CCCN4C(=O)[C@H](NC(=O)OC)c4ccccc4)[nH]3)c(-c3cccc(F)c3F)c2)[nH]1)C(C)C
result.units: ng·h/mL
AUC(0-inf): 285

----------
experiment: MRTlast in Sprague-Dawley rat at 2 mg/kg, iv measured after 24 hrs by LC-MS/MS analysis; format: ADME, organism-based; conditions: in vivo
Listed next: entries and their corresponding MRT last at 24 h.
observed.property: MRT last at 24 h (h)

test.smiles: COC(=O)N[C@H](C(=O)N1CCC[C@H]1c1ncc(-c2ccc(C#CC#Cc3cnc([C@@H]4CCCN4C(=O)[C@H](NC(=O)OC)c4ccccc4)[nH]3)c(-c3ccccc3)c2)[nH]1)C(C)C.Cl.Cl
assay.result: 1.2

test.smiles: COC(=O)N[C@H](C(=O)N1CCC[C@H]1c1ncc(-c2ccc(C#CC#Cc3cnc([C@@H]4CCCN4C(=O)[C@H](NC(=O)OC)c4ccccc4)[nH]3)c(-c3cccc(F)c3F)c2)[nH]1)C(C)C
assay.result: 4.2

test.smiles: COC(=O)N[C@H](C(=O)N1CCC[C@H]1c1ncc(-c2ccc(C#CC#Cc3cnc([C@@H]4CCCN4C(=O)[C@H](NC(=O)OC)c4ccccc4)[nH]3)c(-c3cccc(F)c3F)c2)[nH]1)C(C)C.Cl.Cl
assay.result: 3.2
